Where do these numbers come from? They come from PubChem BioAssay (Tox21).

protocol.summary: qHTS assay for small molecule agonists of the antioxidant response element (ARE) signaling pathway - cell viability counter screen (AID 743203); further: nearly all actives have a fitted effect of over 55% in size
experimental.context: ARE-bla HepG2 viability, CellTiter-Glo luminescence, 16 h; series mostly up to 73.3 µM
Inconclusive results are not listed. The source made the active and inactive calls. The call rests on the fitted dose curve.
recorded.metric: outcome

Study these solved cases before continuing.
COP(N)(=S)Oc1ccccc1C(=O)OC(C)C (stereo not drawn) ... inactive
c1coc(-c2nc3ccccc3[nH]2)c1 ... inactive
Cc1ccccc1CO[C@@H]1C[C@@]2(C(C)C)CC[C@]1(C)O2 ... inactive
CCOP(=O)(OCC)OP(=O)(OCC)OCC ... inactive
O=C(NCO)NCO ... inactive
COC(=O)C(C)Oc1ccc(Oc2ccc(Cl)cc2Cl)cc1 (stereo not drawn) ... inactive
N#CC(O)c1ccccc1 (stereo not drawn) ... inactive
CCCCc1ccc(O)cc1 ... inactive
O=C(O)c1ccc2[nH]cc(CCCCN3CC=C(c4ccccc4)CC3)c2c1 ... inactive
CC(Oc1ccc(Oc2ncc(C(F)(F)F)cc2Cl)cc1)C(=O)O (stereo not drawn) ... inactive

Exercise: What outcome value was documented for this molecule, O=c1oc2ccccc2c(O)c1C1CCCc2ccccc21 (stereo not drawn) ?
Solution: inactive

Exercise: Bench note: what outcome did CCC(Cl)[N+](=O)[O-] (stereo not drawn) show?
Solution: inactive

Exercise: If you can, please state the reported outcome value of `CCc1cc2c(s1)-n1c(C)nnc1CN=C2c1ccccc1Cl` .
Solution: inactive
